The following molecules are shown together with reported viability, T/C values.
System: 454973-116-R2-J3-PDC spheroids, viability, % test/control
Experiment: Anticancer human tumor 454973-116-R2-J3-PDC patient-derived pancreatic carcinoma cell line growth inhibition [GQUAD]
Details: second compound 3.16 µM; first compound 10 µM; stronger effect = lower value; spheroids with HUVEC and MSC

[
  {
    "molecule": "Nc1ccn(C2OC(CO)C(O)C2(F)F)c(=O)n1 (stereo not drawn) + Cc1[nH]c2ccc(F)cc2c1-c1nc2c3cccnc3c3ncccc3c2[nH]1",
    "viability, T/C (%)": 16.4
  },
  {
    "molecule": "CC(C)n1c(=O)n(C)c2cnc3cc(F)c(-c4ccc(OCCCN5CCCCC5)nc4)cc3c21 + CN(C)c1ccc(Nc2c3ccc(NC(=O)CCN4CCCC4)cc3nc3cc(NC(=O)CCN4CCCC4)ccc23)cc1",
    "viability, T/C (%)": 63.7
  },
  {
    "molecule": "CCCS(=O)(=O)Nc1ccc(F)c(C(=O)c2c[nH]c3ncc(-c4ccc(Cl)cc4)cc23)c1F + CN(C)c1ccc(Nc2c3ccc(NC(=O)CCN4CCCC4)cc3nc3cc(NC(=O)CCN4CCCC4)ccc23)cc1",
    "viability, T/C (%)": 13.5
  }
]

* * *

Test system: 454973-116-R2-J3-PDC spheroids, viability, % test/control
Test: Anticancer human tumor 454973-116-R2-J3-PDC cell line growth inhibition [GQUAD];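 note: spheroids exposed to compounds for seven days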
Settings: curve of first compound; second compound 0.0316 µM; spheroids with HUVEC and MSC
pIC50: −log10 of the molar value.
The following compounds are shown together with reported pIC50 values.
measured_metric: pIC50

[
  {
    "compound": "CC1COCCN1c1cc(C2(O)CC3CCC(C2)O3)c2cnn(-c3ccn[nH]3)c2n1 (stereo not given) + Cc1cnc(CNC(=O)c2c(=O)c3ccc(N4CCCN(C)CC4)nc3n3c2sc2ccccc23)cn1",
    "measured_target": "454973-116-R2-J3-PDC spheroids, viability, % test/control",
    "measured_metric": "pIC50",
    "qualifying_sign": "=",
    "observed_result": 7.50
  },
  {
    "compound": "CCCS(=O)(=O)Nc1ccc(F)c(C(=O)c2c[nH]c3ncc(-c4ccc(Cl)cc4)cc23)c1F + Cc1cnc(CNC(=O)c2c(=O)c3ccc(N4CCCN(C)CC4)nc3n3c2sc2ccccc23)cn1",
    "measured_target": "454973-116-R2-J3-PDC spheroids, viability, % test/control",
    "measured_metric": "pIC50",
    "qualifying_sign": "=",
    "observed_result": 5.19
  },
  {
    "compound": "COc1ccc([C@@H](O)c2cc(-c3ncnc4cc(N5CCOCC5)ccc34)c(F)cc2Cl)nn1 + CN(C)c1ccc(Nc2c3ccc(NC(=O)CCN4CCCC4)cc3nc3cc(NC(=O)CCN4CCCC4)ccc23)cc1",
    "measured_target": "454973-116-R2-J3-PDC spheroids, viability, % test/control",
    "measured_metric": "pIC50",
    "qualifying_sign": "<",
    "observed_result": 5.00
  },
  {
    "compound": "CC1COCCN1c1cc(C2(O)CC3CCC(C2)O3)c2cnn(-c3ccn[nH]3)c2n1 (stereo not given) + CN(C)c1ccc(Nc2c3ccc(NC(=O)CCN4CCCC4)cc3nc3cc(NC(=O)CCN4CCCC4)ccc23)cc1",
    "measured_target": "454973-116-R2-J3-PDC spheroids, viability, % test/control",
    "measured_metric": "pIC50",
    "qualifying_sign": "=",
    "observed_result": 6.75
  },
  {
    "compound": "Cc1[nH]c2ccccc2c1CCNCc1ccc(/C=C/C(=O)NO)cc1 + Cc1cnc(CNC(=O)c2c(=O)c3ccc(N4CCCN(C)CC4)nc3n3c2sc2ccccc23)cn1",
    "measured_target": "454973-116-R2-J3-PDC spheroids, viability, % test/control",
    "measured_metric": "pIC50",
    "qualifying_sign": "=",
    "observed_result": 7.22
  },
  {
    "compound": "CC1COCCN1c1cc(-c2ccnn2C)c2ccnc(-c3ccn[nH]3)c2n1 (stereo not given) + Cc1[nH]c2ccc(F)cc2c1-c1nc2c3cccnc3c3ncccc3c2[nH]1",
    "measured_target": "454973-116-R2-J3-PDC spheroids, viability, % test/control",
    "measured_metric": "pIC50",
    "qualifying_sign": "=",
    "observed_result": 6.79
  },
  {
    "compound": "CC(C)n1c(=O)n(C)c2cnc3cc(F)c(-c4ccc(OCCCN5CCCCC5)nc4)cc3c21 + CN(C)c1ccc(Nc2c3ccc(NC(=O)CCN4CCCC4)cc3nc3cc(NC(=O)CCN4CCCC4)ccc23)cc1",
    "measured_target": "454973-116-R2-J3-PDC spheroids, viability, % test/control",
    "measured_metric": "pIC50",
    "qualifying_sign": "<",
    "observed_result": 5.00
  },
  {
    "compound": "CC1COCCN1c1cc(-c2ccnn2C)c2ccnc(-c3ccn[nH]3)c2n1 (stereo not given) + CN(C)c1ccc(Nc2c3ccc(NC(=O)CCN4CCCC4)cc3nc3cc(NC(=O)CCN4CCCC4)ccc23)cc1",
    "measured_target": "454973-116-R2-J3-PDC spheroids, viability, % test/control",
    "measured_metric": "pIC50",
    "qualifying_sign": "=",
    "observed_result": 6.74
  },
  {
    "compound": "C=CCn1c(=O)c2cnc(Nc3ccc(N4CCN(C)CC4)cc3)nc2n1-c1cccc(C(C)(C)O)n1 + Cc1cnc(CNC(=O)c2c(=O)c3ccc(N4CCCN(C)CC4)nc3n3c2sc2ccccc23)cn1",
    "measured_target": "454973-116-R2-J3-PDC spheroids, viability, % test/control",
    "measured_metric": "pIC50",
    "qualifying_sign": "=",
    "observed_result": 6.72
  },
  {
    "compound": "CC(=O)O[C@H]1C(=O)[C@@]2(C)[C@H]([C@H](OC(=O)c3ccccc3)[C@]3(O)C[C@H](OC(=O)[C@H](O)[C@@H](NC(=O)c4ccccc4)c4ccccc4)C(C)=C1C3(C)C)[C@]1(OC(C)=O)CO[C@@H]1C[C@@H]2O + Cc1cnc(CNC(=O)c2c(=O)c3ccc(N4CCCN(C)CC4)nc3n3c2sc2ccccc23)cn1",
    "measured_target": "454973-116-R2-J3-PDC spheroids, viability, % test/control",
    "measured_metric": "pIC50",
    "qualifying_sign": ">",
    "observed_result": 7.50
  },
  {
    "compound": "COc1ccc([C@@H](O)c2cc(-c3ncnc4cc(N5CCOCC5)ccc34)c(F)cc2Cl)nn1 + Cc1[nH]c2ccc(F)cc2c1-c1nc2c3cccnc3c3ncccc3c2[nH]1",
    "measured_target": "454973-116-R2-J3-PDC spheroids, viability, % test/control",
    "measured_metric": "pIC50",
    "qualifying_sign": "=",
    "observed_result": 5.13
  },
  {
    "compound": "CC1COCCN1c1cc(C2(S(C)(=N)=O)CC2)nc(-c2ccnc3[nH]ccc23)n1 (stereo not given) + Cc1[nH]c2ccc(F)cc2c1-c1nc2c3cccnc3c3ncccc3c2[nH]1",
    "measured_target": "454973-116-R2-J3-PDC spheroids, viability, % test/control",
    "measured_metric": "pIC50",
    "qualifying_sign": "=",
    "observed_result": 5.23
  },
  {
    "compound": "CC(=O)O[C@H]1C(=O)[C@@]2(C)[C@H]([C@H](OC(=O)c3ccccc3)[C@]3(O)C[C@H](OC(=O)[C@H](O)[C@@H](NC(=O)c4ccccc4)c4ccccc4)C(C)=C1C3(C)C)[C@]1(OC(C)=O)CO[C@@H]1C[C@@H]2O + CN(C)c1ccc(Nc2c3ccc(NC(=O)CCN4CCCC4)cc3nc3cc(NC(=O)CCN4CCCC4)ccc23)cc1",
    "measured_target": "454973-116-R2-J3-PDC spheroids, viability, % test/control",
    "measured_metric": "pIC50",
    "qualifying_sign": ">",
    "observed_result": 7.50
  },
  {
    "compound": "O=c1[nH]cc(F)c(=O)[nH]1 + Cc1[nH]c2ccc(F)cc2c1-c1nc2c3cccnc3c3ncccc3c2[nH]1",
    "measured_target": "454973-116-R2-J3-PDC spheroids, viability, % test/control",
    "measured_metric": "pIC50",
    "qualifying_sign": "=",
    "observed_result": 5.65
  },
  {
    "compound": "Cc1[nH]c2ccccc2c1CCNCc1ccc(/C=C/C(=O)NO)cc1 + Cc1[nH]c2ccc(F)cc2c1-c1nc2c3cccnc3c3ncccc3c2[nH]1",
    "measured_target": "454973-116-R2-J3-PDC spheroids, viability, % test/control",
    "measured_metric": "pIC50",
    "qualifying_sign": "=",
    "observed_result": 7.13
  },
  {
    "compound": "CC(C)n1c(=O)n(C)c2cnc3cc(F)c(-c4ccc(OCCCN5CCCCC5)nc4)cc3c21 + Cc1[nH]c2ccc(F)cc2c1-c1nc2c3cccnc3c3ncccc3c2[nH]1",
    "measured_target": "454973-116-R2-J3-PDC spheroids, viability, % test/control",
    "measured_metric": "pIC50",
    "qualifying_sign": "<",
    "observed_result": 5.00
  },
  {
    "compound": "Cc1cccc(N(C)C(=O)C2C(O)CCN2c2nc(C)cc(C(F)(F)F)c2C#N)c1 (stereo not given) + Cc1cnc(CNC(=O)c2c(=O)c3ccc(N4CCCN(C)CC4)nc3n3c2sc2ccccc23)cn1",
    "measured_target": "454973-116-R2-J3-PDC spheroids, viability, % test/control",
    "measured_metric": "pIC50",
    "qualifying_sign": "<",
    "observed_result": 5.00
  },
  {
    "compound": "CC(=O)O[C@H]1C(=O)[C@@]2(C)[C@H]([C@H](OC(=O)c3ccccc3)[C@]3(O)C[C@H](OC(=O)[C@H](O)[C@@H](NC(=O)c4ccccc4)c4ccccc4)C(C)=C1C3(C)C)[C@]1(OC(C)=O)CO[C@@H]1C[C@@H]2O + Cc1[nH]c2ccc(F)cc2c1-c1nc2c3cccnc3c3ncccc3c2[nH]1",
    "measured_target": "454973-116-R2-J3-PDC spheroids, viability, % test/control",
    "measured_metric": "pIC50",
    "qualifying_sign": ">",
    "observed_result": 7.50
  },
  {
    "compound": "CC(C)(O)C1CCC(Nc2ccc3ncc(-c4cccc(C(F)(F)F)c4)n3n2)CC1 (stereo not given) + Cc1cnc(CNC(=O)c2c(=O)c3ccc(N4CCCN(C)CC4)nc3n3c2sc2ccccc23)cn1",
    "measured_target": "454973-116-R2-J3-PDC spheroids, viability, % test/control",
    "measured_metric": "pIC50",
    "qualifying_sign": "=",
    "observed_result": 5.76
  },
  {
    "compound": "CC(C)(O)C1CCC(Nc2ccc3ncc(-c4cccc(C(F)(F)F)c4)n3n2)CC1 (stereo not given) + Cc1[nH]c2ccc(F)cc2c1-c1nc2c3cccnc3c3ncccc3c2[nH]1",
    "measured_target": "454973-116-R2-J3-PDC spheroids, viability, % test/control",
    "measured_metric": "pIC50",
    "qualifying_sign": "=",
    "observed_result": 5.73
  }
]
